Assay: The drug is tested on Bifidobacterium ruminantium strain: fecal isolate for biotransformation. The drug concentrations were measured before and after a 12-h incubation by liquid-chromatography-coupled mass spectrometry (LC–MS)
Settings: 2 µM
RESULT TYPE: Bacterial Biotransformation

Answered examples (4):
CC(C)(C)NC(=O)[C@H]1CC[C@H]2[C@@H]3CC[C@H]4NC(=O)C=C[C@]4(C)[C@H]3CC[C@]12C [FINASTERIDE]: Compound NOT metabolized
Nc1nc2ccc(OC(F)(F)F)cc2s1: Compound metabolized
C[C@]12C=CC(=O)C=C1CC[C@@H]1[C@@H]2C(=O)C[C@@]2(C)[C@H]1CC[C@]2(O)C(=O)CO: Compound NOT metabolized
Nc1ccc(/N=N/c2ccccc2)c(N)n1: Compound metabolized

# next molecule below
Value of Bacterial Biotransformation reported for the molecule CCC(=O)NCC[C@@H]1CCc2ccc3c(c21)CCO3 is Compound NOT metabolized

----------
Experiment: The drug is tested on Eggerthella lenta strain: ATCC25559 for biotransformation. The drug concentrations were measured before and after a 12-h incubation by liquid-chromatography-coupled mass spectrometry (LC–MS)
Settings: 2 µM
RESULT TYPE: Bacterial Biotransformation

CCN(C)C(=O)Oc1cccc([C@H](C)N(C)C)c1.O=C(O)C(O)C(O)C(=O)O [RIVASTIGMINE TARTRATE]: Compound NOT metabolized
CC(=O)CC(c1ccccc1)c1c(O)c2ccccc2oc1=O (centres undefined): Compound NOT metabolized
CC(C)c1nc(CN(C)C(=O)N[C@H](C(=O)N[C@@H](Cc2ccccc2)C[C@H](O)[C@H](Cc2ccccc2)NC(=O)OCc2cncs2)C(C)C)cs1: Compound NOT metabolized

----------
Test: The drug is tested on Clostridium sp. strain: fecal isolate for biotransformation. The drug concentrations were measured before and after a 12-h incubation by liquid-chromatography-coupled mass spectrometry (LC–MS)
Settings: 2 µM
RESULT TYPE: Bacterial Biotransformation

Here are 4 compounds together with their reported answers.
N#Cc1ccc2[nH]cc(CCCCN3CCN(c4ccc5oc(C(N)=O)cc5c4)CC3)c2c1 [VILAZODONE]: Compound NOT metabolized
CCS(=O)(=O)CCn1c([N+](=O)[O-])cnc1C [TINIDAZOLE]: Compound metabolized
CC(=O)CC(c1ccccc1)c1c(O)c2ccccc2oc1=O (configuration not stated) [WARFARIN]: Compound NOT metabolized
COC(=O)C(c1ccccc1)C1CCCCN1 (configuration not stated) [METHYLPHENIDATE]: Compound metabolized

Consider CC(C)c1nc(N(C)S(C)(=O)=O)nc(-c2ccc(F)cc2)c1/C=C/[C@@H](O)C[C@@H](O)CC(=O)[O-].CC(C)c1nc(N(C)S(C)(=O)=O)nc(-c2ccc(F)cc2)c1/C=C/[C@@H](O)C[C@@H](O)CC(=O)[O-].[Ca+2] [ROSUVASTATIN CALCIUM] . Its measured Bacterial Biotransformation is Compound NOT metabolized

Value of measured Bacterial Biotransformation for the entry CC(C(=O)O)c1ccc2c(c1)Cc1cccnc1O2 (configuration not stated) [PRANOPROFEN] : Compound metabolized

The compound listed as COc1cc2nc(N(C)CCCNC(=O)C3CCCO3)nc(N)c2cc1OC (configuration not stated) [ALFUZOSIN] shows Bacterial Biotransformation equal to Compound NOT metabolized

Documented Bacterial Biotransformation of CC(C)(C(=O)O)c1ccc(C(O)CCCN2CCC(C(O)(c3ccccc3)c3ccccc3)CC2)cc1 (configuration not stated) [FEXOFENADINE] : Compound NOT metabolized

For reference, reported Bacterial Biotransformation for CCCC1O[C@@H]2C[C@H]3[C@@H]4CCC5=CC(=O)C=C[C@]5(C)[C@H]4[C@@H](O)C[C@]3(C)[C@]2(C(=O)CO)O1 (some centres not stated) [BUDESONIDE] stands at Compound metabolized

Bacterial Biotransformation reading for CC(C)(C)NC(=O)[C@H]1CC[C@H]2[C@@H]3CC[C@H]4NC(=O)C=C[C@]4(C)[C@H]3CC[C@]12C [FINASTERIDE] : Compound NOT metabolized

get_value(item= CNS(=O)(=O)Cc1ccc2[nH]cc(CCN(C)C)c2c1.O=C(O)CCC(=O)O [SUMATRIPTAN SUCCINATE] , readout=Bacterial Biotransformation) returns Compound NOT metabolized

# Bacterial Biotransformation of c1ccc2[nH]c(-c3cscn3)nc2c1 [THIABENDAZOLE] = Compound NOT metabolized

The compound listed as O=P(O)(O)O.c1ccc(CN(CC2=NCCN2)c2ccccc2)cc1 [ANTAZOLINE PHOSPHATE] has a reported Bacterial Biotransformation of Compound NOT metabolized

Looking up CC(CCc1ccccc1)NCC(O)c1ccc(O)c(C(N)=O)c1 (configuration not stated) [LABETALOL] , I found its Bacterial Biotransformation recorded as Compound NOT metabolized

Bacterial Biotransformation in this record for C#C[C@]1(O)CC[C@H]2[C@@H]3CCC4=Cc5oncc5C[C@]4(C)[C@H]3CC[C@@]21C [DANAZOL] : Compound metabolized

# Bacterial Biotransformation of C#C[C@]1(OC(C)=O)CC[C@H]2[C@@H]3CCC4=C[C@@H](OC(C)=O)CC[C@@H]4[C@H]3CC[C@@]21C [ETHYNODIOL DIACETATE] = Compound NOT metabolized

Summary for this compound, Nc1ccc(/N=N/c2ccccc2)c(N)n1 [PHENAZOPYRIDINE] : Bacterial Biotransformation is Compound metabolized

Reported Bacterial Biotransformation of CC(C)c1nc(CN(C)C(=O)N[C@H](C(=O)N[C@@H](Cc2ccccc2)C[C@H](O)[C@H](Cc2ccccc2)NC(=O)OCc2cncs2)C(C)C)cs1 [RITONAVIR] : Compound metabolized

Query COC(=O)C1=C(C)NC(C)=C(C(=O)OC(C)C)C1c1cccc2nonc12 (configuration not stated) [ISRADIPINE] yields Bacterial Biotransformation of Compound NOT metabolized

Looking up CCOc1ccccc1OCCN[C@H](C)Cc1ccc(OC)c(S(N)(=O)=O)c1.Cl [TAMSULOSIN HYDROCHLORIDE] , I see its Bacterial Biotransformation listed as Compound NOT metabolized

Please fill in: Bacterial Biotransformation reported for O=P1(N(CCCl)CCCl)NCCCO1 (configuration not stated) [CYCLOPHOSPHAMIDE ANHYDROUS] = Compound NOT metabolized

compound Br.CN1CCC[C@@H]1Cc1c[nH]c2ccc(CCS(=O)(=O)c3ccccc3)cc12 [ELETRIPTAN HYDROBROMIDE] , Bacterial Biotransformation observed: Compound NOT metabolized

All figures here come from ChEMBL document CHEMBL5303573.
